- Test system: K4 kissing-loop RNA reporter;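 note: bound reporter read as fluorescence of individual clusters on recovered sequencing chips by microscopy, with normalized cluster intensities fitted with a binding model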
- assayExplanation: apparent KD of K4 kissing-loop reporter; higher = weaker reporter binding
- details: Eterna round: R107; input ligand: FMN 200 uM
Measured apparent KD of K4 kissing-loop reporter of individual entries
measurementKind: apparent KD of K4 kissing-loop reporter (nM)

residueString	measurementKind	unitSpec	experimentalResult
GCCUACGAUGCAGGAUAUAGCUCGCGAGUGAUGUUCGCAGCUGUAUGGUAGUAAACUUCCACGUGUCUAGAAGGGCAUCGUAGGC	apparent KD of K4 kissing-loop reporter	nM	111
AUUCUAUUGUGAAGGAGCGCGACUAGUAGUGAUGUUACUAUAUGACUUUAGUCUUAAUUCUCGCAGGUAGGUCGCACAAUAUAUA [JR_Nu_SSArginiB_Sub028]	apparent KD of K4 kissing-loop reporter	nM	913
UGGAGUUGACGAAAAGUCAACUCCUGAGAUACCAGUGACGAAAGUCACCCUUGGCAGCUCACUGCCAGUGAUGUUGGAAAUAAAA [#01 K4 Theophylline A Same State]	apparent KD of K4 kissing-loop reporter	nM	346
CUCGAGUGAUGUUCCUUUAUUUAUACAGAUACCAGUGAAUUUUAACACCCUUGGCAGCUGGUUGUAUCUUUGUUUUUUACACAUG [JR_Nu_ExcTheophyA_Sub025]	apparent KD of K4 kissing-loop reporter	nM	204
ACACGGAGAGGCAUAACGUGCAUCUUCAGCGAGGAUAUCCAUUACAGGAGAAGGCGCUCCGGAGUGAUGUUCCGGCAAAAGAUAC [Quatatte]	apparent KD of K4 kissing-loop reporter	nM	83.5
CACCUGCCAUAAGGAUAUUCGUCUUUGCGCUUCCAGUGAUGUUGGAGAUCGCAACACAUGGUCAUAGAAGAAGGUAUGGUAUUAA [theeternabot_sameState_KL_FMN_B_35]	apparent KD of K4 kissing-loop reporter	nM	154

----------
- Tested on: MS2 coat protein
- assayExplanation: apparent KD of MS2 coat protein; designed switch direction (-1 OFF switch, 1 ON switch): 1; higher = weaker reporter binding
- details: input ligand: none

residueString	apparent KD of MS2 coat protein [nM]
UUGCGGGCUUGAGGAUAUUGAGUACAUAUGUUUAACAUGAGGAUCACCCAUGUGGGUUGCGGUAUCGAGAAGGUAACUUACUAC [salish99_SSNG2_r04_807] (Eterna round: R96, puzzle: Same State NG 2)	97.2
GCUAGUAUUAUUGUCAACAUGAGGAUCACCCAUGUAUGUUGGCAGGAUAUCGUUUGCAAAGCAAACGAGAAGGGCUAAACUAGC [Mat - Same State NG 3 - JL Mod - D10] (Eterna round: R96, puzzle: Same State NG 3)	185
AGACAUGAGGAUCACCCAUGUAUACACUAUAUCAGUGUAACAUAGGAUAUCCACCGCCAUGCUGUGGAGAAGGAUGAAACGGGC [Raerlaan] (Eterna round: R96, puzzle: Same State NG 3)	108
GGUAAGAAUUAAGGAUAUCGAGUACAUAUGUUUAACAUGAGGAUCACCCAUGUGGGUUGCGGUAUCGAGAAGGUAAAAUAUAAG [Mat - same State NG 2 - JL mod - D64] (Eterna round: R96, puzzle: Same State NG 2)	75.7
GGCGAACAGGCCGACAUGAGGAUCACCCAUGUGGCCUCAUGUCAGGAUAUCGGGAAGGAGGAAACCGAGAAGGGACGGUGAGCC [AK SSNG3-V2-44] (Eterna round: R96, puzzle: Same State NG 3)	65.1
UGUUGAAACUGAGGAUAUGGCGUGUGACGAAUGCCAGAAGGUAGUAGGAGCAACAUGAGGAUCACCCAUGUCCGGCGCAGACCC [Eternabot solution 16] (Eterna round: R96, puzzle: Same State NG 1)	71.3
GCCAACGCAUGAGGAUAUGGCACCUUAUUGGUGCCAGAAGGCAUGUGUAUUCACAUGAGGAUCACCCAUGUAUUAUAGUUGGCA [Fiskers NG1ss - 16] (Eterna round: R96, puzzle: Same State NG 1)	176
GCGAGCGUACUUGCAGACAUGAGGAUCACCCAUGUAACUGGACAGGAUAUGGUACCGUUUCGGUACCAGAAGGGUUUAUAUGUC [JL SSNG3 3.52] (Eterna round: R96, puzzle: Same State NG 3)	57.4
GUGGUCAGACAUGAGGAUCACCCAUGUGGAAUAAAUAACGGUGAGGAUAUGGAAUAUAGGAUAUACUAGAAGGCAUGAUUGGUG (Eterna round: R96, puzzle: Same State NG 3)	92.3
GCACAUGAGGAUCACCCAUGUGCGAGAAAGACGGACCGGAUACAGGAUAUGCGCGAACGGAAGACGCAGAAGGGUGACCAAAAC [Anmaed] (Eterna round: R96, puzzle: Same State NG 3)	40.6
GUGCUCGUGUAAGGAUAUGCUUCCGUUUCGGCUGCAGAAGGUACUAUUAUACAUGAGGAUCACCCAUGUCUCUUUUGUUUGGUG [salish99_SSNG1_r04_909] (Eterna round: R96, puzzle: Same State NG 1)	87.9
GGACGUCAUCUCACUGAUUAAACAUGAGGAUCACCCAUGUCAGAGGAUAUGAGUCCGAUUAGGACUCAGAAGGCUGUGACGUCC [Fiskers NG3ss - 46] (Eterna round: R96, puzzle: Same State NG 3)	16
UUGAAGAACAUAGGAUAUUGAAUACAUAUGUUUAACAUGAGGAUCACCCAUGUGGGUUGCGGUAUCGAGAAGGAUGAAUAAAAG [Mat - Same State NG 2 - JL mod - D15] (Eterna round: R96, puzzle: Same State NG 2)	256
AACCUAGGCAGAGGAUAUCUGGACGCGCGCACCAGAGAAGGCUGCGAGCCCUGAAUAUACAUGAGGAUCACCCAUGUCCCGCAC [Eternabot solution 15] (Eterna round: R96, puzzle: Same State NG 1)	26.5
UAUCCAUAGAUAGGAUAUUAGUGAACAUGAGGAUCACCCAUGUUUUGCUUGGUUUUAAGCUAAUCUGAGAAGGAUCUUGAUGAA [SameState NG2 #6] (Eterna round: R96, puzzle: Same State NG 2)	41.6
GGAAUAUUUACAGGAUAUGAGUUGUAAAGUCGAUCAGAAGGGUAGAUGUCUUACACGGUUUGUUACAUGAGGAUCACCCAUGUU [SameState NG1 #18] (Eterna round: R96, puzzle: Same State NG 1)	86.6
CUGCAACAUGAGGAUCACCCAUGUAACCCAAUUAUAGGAUAUGUGAUGGUGAUCGACAUGACAGAAGGGUGAUUGG [Arinra] (Eterna round: R96, puzzle: Same State 1)	41.8
GUUACAUGAGGAUCACCCAUGUAUGUGUGGGAGUAAGUGUCUUAGGAUAUCUGUUAUUUAAAUUAAGAGAAGGAAGAUUGUUGU [JMF's solution 8] (Eterna round: R96, puzzle: Same State NG 3)	110
